Form field: cytotoxicity at 10 µM (one value per entry).
- assay_notes: Toxicity liver stage against HepG2, at 10uM
- Format: cell-based
- Set-up: test concentration 10 uM, cell line HepG2-A16-CD81EGFP
- stated_conditions: human, HepG2-A16-CD81EGFP cells; read-out: INHIBITION
Answer format: numeric, % implied, no suffix.

# example entries with known answers
CC1CCCN(C(=O)Cn2cc(I)cn2)C1 (configuration not stated) | 0.106
COC(=O)Nc1ccc(CNc2cncc(-n3cccn3)n2)cc1 | -5.78
O=C(O)[C@@H]1CN(C2CCCCC2)C[C@H]1C1CC1 | -140
O=C(CCSc1ccccc1)NCCn1nc2ccccn2c1=O | -6.09
COc1ccc(-c2nnc(CN3CCCC3Cn3cncn3)o2)cc1 (configuration not stated) | 3.02

stdin: Which cytotoxicity at 10 µM is listed for COCCN1CCC(CNC(=O)CCc2cc(F)ccc2F)C1 (configuration not stated) ?
stdout: -4.05

stdin: Which cytotoxicity at 10 µM is listed for CCc1ccc(-c2nn3c(nc2=O)-c2ccccc2NC3C(=O)O)cc1 (configuration not stated) ?
stdout: 11.2

stdin: Which cytotoxicity at 10 µM is listed for `CC(C)CCN(C(=O)CCn1cc(S(N)(=O)=O)cn1)C1CC1` ?
stdout: 3.92

stdin: Which cytotoxicity at 10 µM is listed for CCN(CC1CCOC1)C(=O)c1ccccc1S(=O)(=O)CC (configuration not stated) ?
stdout: -2.15

stdin: Which cytotoxicity at 10 µM is listed for `CC(C)n1cnnc1CN(C)C(=O)c1ccccc1N1CCOCC1` ?
stdout: 1.47

stdin: Which cytotoxicity at 10 µM is listed for `O=C(CCn1ccccc1=O)N1CCN(Cc2cccc(Cl)c2)CC1` ?
stdout: -1.97

stdin: Which cytotoxicity at 10 µM is listed for `NC(=O)c1cc2c(nc1Oc1ccccc1CN1CCCCC1)CCC2` ?
stdout: 3.71

* * *

- assay_notes: Toxicity liver stage against HepG2, at 10uM
- Assay type: cell-based
- Design: test concentration 10 uM, cell line HepG2-A16-CD81EGFP
- stated_conditions: human, HepG2-A16-CD81EGFP cells; read-out: INHIBITION
value_type: cytotoxicity at 10 µM (%)
Answer format: numeric, % implied, no suffix.

# example entries with known answers
COCC[C@]1(O)CCN(Cc2nc(C(C)C)cs2)C[C@H]1C | -6.26
CC(C)c1cc(C(=O)N2CCN(Cc3ccsc3)CC2)n[nH]1 | 0.0711
Cc1cn2c(n1)C(CNCC1=Cc3cc(Cl)ccc3OC1)CCC2 (stereo unspecified) | 33.3
CCc1ccccc1Nc1noc2c1CN(C(=O)CCOC)CC2 | -16.6

stdin: Which cytotoxicity at 10 µM is listed for NC(=O)NC(=O)CCN1C(=O)CC(Cc2ccc(F)cc2)C1=O (stereo unspecified) ?
stdout: -0.327

stdin: Which cytotoxicity at 10 µM is listed for `Cc1nnsc1C(=O)NCc1cccnc1N(C)C` ?
stdout: -12.2

stdin: Which cytotoxicity at 10 µM is listed for `CO[C@@H]1CCN(C(=O)c2cnoc2C)[C@H]1Cc1ccccc1` ?
stdout: -72.3

stdin: Which cytotoxicity at 10 µM is listed for Cc1nc(C(=O)N2CCCC(n3cncn3)C2)cs1 (stereo unspecified) ?
stdout: 5.7

stdin: Which cytotoxicity at 10 µM is listed for CCc1nccn1C1CCCN(C(=O)c2cc3nc(C)ccc3o2)C1 (stereo unspecified) ?
stdout: -15.5

stdin: Which cytotoxicity at 10 µM is listed for c1ccc(-n2nnnc2CN2CCCC(Cn3cncn3)C2)cc1 (stereo unspecified) ?
stdout: 0.962

stdin: Which cytotoxicity at 10 µM is listed for `O=C(NCCCN1CCOCC1)c1nc(-c2ccc3cc[nH]c3c2)no1` ?
stdout: -0.663

stdin: Which cytotoxicity at 10 µM is listed for COc1ccnc(CN2CC(=O)N(c3ccc(C)cc3)CC2C)c1OC (stereo unspecified) ?
stdout: -10.8

stdin: Which cytotoxicity at 10 µM is listed for `CCS(=O)(=O)NC[C@]12COC[C@H]1CN(Cc1cc(C)on1)C2` ?
stdout: 2.34

stdin: Which cytotoxicity at 10 µM is listed for O=C(CN1CCOC(CNc2cccnn2)C1)N1CCCCC1 (stereo unspecified) ?
stdout: 5.18

stdin: Which cytotoxicity at 10 µM is listed for CC(CCc1ccccc1)NC(=O)Nc1cnn(CC(N)=O)c1 (stereo unspecified) ?
stdout: 1.64

stdin: Which cytotoxicity at 10 µM is listed for `COc1cc(N2CC[C@@H]3O[C@@H](c4ccnc(C)n4)C[C@H]3C2)ncn1` ?
stdout: 23.1

stdin: Which cytotoxicity at 10 µM is listed for `Cc1nnc(N2CCN(C(=O)NC3CC3)CC2)c(C(N)=O)c1C` ?
stdout: 4.34
